test system: Pseudoperonospora cubensis; assay: Test 2: control effect against cucumber downy mildew; format: in vivo; settings: Pseudoperonospora cubensis, 120 h, control value vs untreated section
Reported pest or weed control at 4 µg/mL values follow for various compounds
Express the result in % but write the number alone.

Below, 6 compounds whose answers are already recorded.
compound="O=C(Cc1cc(Cl)ccc1Cl)N1CCC(c2nc(C3OCc4cccc(Cl)c4CO3)cs2)CC1 (stereo not shown)" value_reported=100
compound="COc1cccc2c1COC(c1csc(C3CCN(C(=O)Cn4nc(C(F)(F)F)cc4C(F)(F)F)CC3)n1)OC2 (stereo not shown)" value_reported=100
compound="CS(=O)(=O)Oc1cccc2c1COC(c1csc(C3CCN(C(=O)Cc4cc(Cl)ccc4Cl)CC3)n1)OC2 (stereo not shown)" value_reported=100
compound="CS(=O)(=O)Oc1ccc(F)c2c1COC(c1csc(C3CCN(C(=S)Cn4nc(C(F)F)cc4C(F)F)CC3)n1)OC2 (stereo not shown)" value_reported=100
compound="CS(=O)(=O)Oc1c(F)ccc2c1COC(c1csc(C3CCN(C(=O)Cn4nc(C(F)F)cc4C(F)F)CC3)n1)OC2 (stereo not shown)" value_reported=100
compound="Cc1ccc(C)c(N(C)C(=O)N2CCC(c3nc(C4OCc5cccc(OS(C)(=O)=O)c5CO4)cs3)CC2)c1 (stereo not shown)" value_reported=30

Here's the next entry for you.
[Q] Please report the recorded pest or weed control at 4 µg/mL for CS(=O)(=O)Oc1cccc2c1COC(c1csc(C3CCN(C(=O)Cn4nc(C(Cl)Cl)cc4C(Cl)Cl)CC3)n1)OC2 (stereo not shown) .
[A] 100

* * *

system: Phytophthora infestans; assay: whole plant or invertebrate; format: in vivo; details: Phytophthora infestans, in Solanum lycopersicum, 96 h, read-out: control value (Test 1)
Observation Type: pest or weed control at 4 µg/mL (%)
Express the result in % but write the number alone.

molecule="CS(=O)(=O)Oc1cccc2c1COC(c1csc(C3CCN(C(=O)Cn4nc(C(F)F)cc4C(F)F)CC3)n1)OC2 (stereo not shown)" measured_target="Phytophthora infestans" observation_type="pest or weed control at 4 µg/mL" value_reported=100
molecule=Cc1cc(C(F)(F)F)nn1CC(=O)N1CCC(c2nc(C3OCc4c(Br)ccc(Br)c4CO3)cs2)CC1 measured_target="Phytophthora infestans" observation_type="pest or weed control at 4 µg/mL" value_reported=100
molecule="Cc1ccc(C)c(N(C)C(=O)N2CCC(c3nc(C4OCc5cccc(OS(C)(=O)=O)c5CO4)cs3)CC2)c1 (stereo not shown)" measured_target="Phytophthora infestans" observation_type="pest or weed control at 4 µg/mL" value_reported=90

[Q] Which measured pest or weed control at 4 µg/mL belongs to Cc1ccc(C)c(N(C)C(=O)N2CCC(c3nc(C4OCc5c(F)ccc(OS(C)(=O)=O)c5CO4)cs3)CC2)c1 (stereo not shown) , tested on Phytophthora infestans?
[A] 100

* * *

tested on: Pseudoperonospora cubensis; experiment: Test 2: control effect against cucumber downy mildew; type: in vivo; settings: control value vs untreated section
Reported control value (Test 2) values follow for various compounds
// return a plain number; no unit text

compound="COc1ccc(OC(F)(F)F)c2c1COC(c1csc(C3CCN(C(=O)Cn4nc(C(F)(F)F)cc4C)CC3)n1)OC2 (stereo not shown) [Compound 1-86]" value_reported=100
compound="Cc1ccc(C)c(CC(=O)N2CCC(c3nc(C4OCc5c(F)ccc(OS(C)(=O)=O)c5CO4)cs3)CC2)c1 (stereo not shown) [Compound 2-8]" value_reported=100
compound="Cc1cc(C(F)(F)F)nn1CC(=O)N1CCC(c2nc(C3OCc4ccccc4C(C)O3)cs2)CC1 (stereo not shown) [Compound 1-18]" value_reported=100
compound="Cc1cc(C(F)(F)F)nn1CC(=O)N1CCC(c2nc(C3OCc4c(OS(C)(=O)=O)ccc(OS(C)(=O)=O)c4CO3)cs2)CC1 [Compound 1-103]" value_reported=100
compound="O=C(Cc1cc(Cl)ccc1Cl)N1CCC(c2nc(C3OCc4ccc([N+](=O)[O-])cc4CO3)cs2)CC1 (stereo not shown) [Compound 2-21]" value_reported=100
compound="CS(=O)(=O)Oc1ccc(Cl)c2c1COC(c1csc(C3CCN(C(=O)Cc4cc(Cl)ccc4Cl)CC3)n1)OC2 (stereo not shown) [Compound 2-41]" value_reported=100
compound="COc1ccc(Cl)c2c1COC(c1csc(C3CCN(C(=O)Cn4nc(C(F)F)cc4C(F)F)CC3)n1)OC2 (stereo not shown) [Compound 1-112]" value_reported=100
compound="Cc1cc(C(F)(F)F)nn1CC(=O)N1CCC(c2nc(C3OCc4cc5c(cc4CO3)CCC5)cs2)CC1 [Compound 1-31]" value_reported=100

[Q] Please report the recorded control value (Test 2) for Cc1ccc(C)c(CC(=O)N2CCC(c3nc(C4OCc5c(F)ccc(F)c5CO4)cs3)CC2)c1 [Compound 2-6] .
[A] 100

[Q] Please report the recorded control value (Test 2) for CS(=O)(=O)Oc1ccc([N+](=O)[O-])c2c1COC(c1csc(C3CCN(C(=O)Cc4cc(Cl)ccc4Cl)CC3)n1)OC2 (stereo not shown) [Compound 2-34] .
[A] 100

[Q] Please report the recorded control value (Test 2) for COc1ccc(Br)c2c1COC(c1csc(C3CCN(C(=O)Cn4nc(C(F)(F)F)cc4C)CC3)n1)OC2 (stereo not shown) [Compound 1-24] .
[A] 100

[Q] Please report the recorded control value (Test 2) for CS(=O)(=O)Oc1ccc2c(c1)COC(c1csc(C3CCN(C(=O)Cn4nc(C(F)(F)F)cc4C(F)(F)F)CC3)n1)OC2 (stereo not shown) [Compound 1-139] .
[A] 100

[Q] Please report the recorded control value (Test 2) for Cc1cc(OS(C)(=O)=O)c2c(c1C)COC(c1csc(C3CCN(C(=O)Cc4cc(Cl)ccc4Cl)CC3)n1)OC2 (stereo not shown) [Compound 2-32] .
[A] 100
